Biological target: hM3 (human Muscarinic receptor subtype 3) (Homo sapiens, UniProt P20309)
Construct: expressed in transfected cells; host or cells: CHO cells (Chinese hamster ovary cells, ATCC)
Sequence (P20309 whole entry): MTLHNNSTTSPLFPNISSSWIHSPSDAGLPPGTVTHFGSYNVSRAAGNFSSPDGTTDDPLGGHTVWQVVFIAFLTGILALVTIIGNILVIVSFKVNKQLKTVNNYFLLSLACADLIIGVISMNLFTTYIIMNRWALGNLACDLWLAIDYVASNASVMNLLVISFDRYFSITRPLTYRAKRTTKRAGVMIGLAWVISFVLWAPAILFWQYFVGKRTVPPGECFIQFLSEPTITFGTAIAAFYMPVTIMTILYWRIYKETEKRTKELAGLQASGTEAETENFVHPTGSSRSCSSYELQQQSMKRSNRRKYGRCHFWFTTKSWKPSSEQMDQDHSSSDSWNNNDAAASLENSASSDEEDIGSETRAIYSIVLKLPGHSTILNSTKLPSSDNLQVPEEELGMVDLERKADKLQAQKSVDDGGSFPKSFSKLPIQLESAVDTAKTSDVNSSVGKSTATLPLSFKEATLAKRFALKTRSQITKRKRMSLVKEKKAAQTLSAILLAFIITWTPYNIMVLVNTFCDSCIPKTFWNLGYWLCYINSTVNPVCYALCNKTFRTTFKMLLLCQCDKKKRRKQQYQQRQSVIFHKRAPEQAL
Test: Human M3 calcium mobilization FLIPR assay
Type: cell-based
Settings: hM3 expressed in CHO cells, intracellular Ca2+ release, read-out: hM3 EC50
Description: Human M1, rat M1, human M3 and human M5 Calcium Mobilization FLIPR™ Assay The compound activity in the present invention (EC50 or IC50) is measured using a 384 plate-based imaging assay that monitors drug induced intracellular Ca^2+ release in whole cells. […] Inhibition of hM3 and hM5 by compounds is determined by the decrease in fluorescent signal in response to 2 nM acetylcholine activation. […]
pEC50: −log10 of the molar value.
Consider the following compounds; for each one, report its pEC50.

Worked set:
In [3]: df
Out[3]:
                                   compound                                       tgt  result
0  Cc1ccc2c(c1)[nH]c(=O)n2C1CCN(C2(C)CCN(C(=O)OC(C)C)C2)CC1 (single isomer, unassigned) [Example 15]  hM3 (human Muscarinic receptor subtype 3) (Homo sapiens, UniProt P20309)  < 4.40
1  CCOC(=O)N1CCC(C)(N2CCC(n3c(=O)[nH]c4ccc(F)cc43)CC2)C1 (single isomer, unassigned) [Example 50]  hM3 (human Muscarinic receptor subtype 3) (Homo sapiens, UniProt P20309)  < 4.40
2  C#CCOC(=O)N1CCC(C)(N2CCC(n3c(=O)[nH]c4ccc(C)cc43)CC2)C1 (single isomer, unassigned) [Example 43]  hM3 (human Muscarinic receptor subtype 3) (Homo sapiens, UniProt P20309)    6.26
3  CCOC(=O)N1CCC(C)(N2CCC(n3c(=O)[nH]c4cc(F)c(F)cc43)CC2)C1 (single isomer, unassigned) [Example 57]  hM3 (human Muscarinic receptor subtype 3) (Homo sapiens, UniProt P20309)    5.45
4  COC(=O)N1CCC(C)(N2CCC(n3c(=O)[nH]c4cc(C)ccc43)CC2)C1 (single isomer, unassigned) [Example 48]  hM3 (human Muscarinic receptor subtype 3) (Homo sapiens, UniProt P20309)  < 4.40

--- query ---
Asked: Consider the compound CCOC(=O)N1CCC(C)(N2CCC(N3C(=O)Cc4ccc(C)cc43)CC2)C1 (single isomer, unassigned) [Example 69] and give its recorded pEC50.
Given back: < 4.40

----------
Target: cloned human M2 receptor (human Muscarinic receptor subtype 2) (Homo sapiens)
Construct: purchased Perkin-Elmer RBHM2M; host or cells: Chinese hamster ovary cells (CHO) membranes
Sequence (P08172 1-466): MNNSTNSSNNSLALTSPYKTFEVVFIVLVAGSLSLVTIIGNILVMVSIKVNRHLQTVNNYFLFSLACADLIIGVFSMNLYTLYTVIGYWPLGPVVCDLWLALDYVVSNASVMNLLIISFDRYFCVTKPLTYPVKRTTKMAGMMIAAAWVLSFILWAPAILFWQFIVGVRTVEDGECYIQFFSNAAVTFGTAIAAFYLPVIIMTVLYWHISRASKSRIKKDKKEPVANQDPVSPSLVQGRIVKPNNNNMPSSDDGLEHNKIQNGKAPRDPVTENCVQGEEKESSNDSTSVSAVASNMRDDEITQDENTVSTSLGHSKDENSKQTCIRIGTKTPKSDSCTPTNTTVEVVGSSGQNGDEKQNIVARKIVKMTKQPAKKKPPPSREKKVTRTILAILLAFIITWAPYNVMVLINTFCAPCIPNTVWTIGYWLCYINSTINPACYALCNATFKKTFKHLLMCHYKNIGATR
Experiment: hM2 receptor GTPγS binding
Format: biochemical
Conditions: CHO cell membranes expressing hM2; [35S]GTPγS binding; read-out: hM2 EC50
endpoint: EC50
A complete answer gives the number and then names the unit.

Solved cases below.
>>> df
                                   compound                                       tgt  endpoint   result
0  CCOC(=O)N1CCC(C)(N2CCC(N3C(=O)Cc4ccc(F)cc43)CC2)C1 (single isomer, unassigned) [Example 75]  cloned human M2 receptor (human Muscarinic receptor subtype 2) (Homo sapiens)      EC50  2620 nM
1  CCOC(=O)N1CCC(C)(N2CCC(N3C(=O)Cc4cc(F)ccc43)CC2)C1 (single isomer, unassigned) [Example 79]  cloned human M2 receptor (human Muscarinic receptor subtype 2) (Homo sapiens)      EC50  1130 nM

We next turn to a different compound, shown below.
Asked: Please report the measured EC50 for CC#CCOC(=O)N1CCC(C)(N2CCC(n3c(=O)[nH]c4cc(C)ccc43)CC2)C1 (single isomer, unassigned) tested on cloned human M2 receptor (human Muscarinic receptor subtype 2) (Homo sapiens).
Given back: 94 nM
